Test system: MS2 coat protein
Assay: apparent KD of MS2 coat protein; designed switch direction (-1 OFF switch, 1 ON switch): -1; higher = weaker reporter binding
Details: input ligand: microRNA oligo, concentration not stated
measured_metric: apparent KD of MS2 coat protein (µM)
Write the number in µM without appending the unit.

Consider the following illustrative entries.
monomer_sequence: GCCCGGCGUGUAGGAUAUGGUUCCGUUUCGGUUCCAGAAGGACAUGAGGAUACAUGAGGAUCACCCAUGUGGUCGUCACCGGGC [salish99_ExNG1_r04_402] (Eterna round: R96, puzzle: Exclusion NG 1)
apparent KD of MS2 coat protein / µM: 0.026
--
monomer_sequence: AGUUGUUGCGCAGGAUAUGAGGAUCACCCAUAGUAGGAUAUCGAAAGGGAAGGACUGAGGAUUACCCAGAAGGGCGUGAUGACA [pwkr exNG2 2xF5 2xFMN.7] (Eterna round: R96, puzzle: Exclusion NG 2)
apparent KD of MS2 coat protein / µM: 0.292
--
monomer_sequence: CUCCGGCGUGUAGGAUAUGGUUCCGUUUCGGUUCCAGAAGGACAUGAGGAUCACCCAUGUACAUGUCGUCGGUCGUCACCGGGC [salish99_ExNG1_r04_215] (Eterna round: R96, puzzle: Exclusion NG 1)
apparent KD of MS2 coat protein / µM: 0.0217

// next item, apparent KD of MS2 coat protein requested
Quote apparent KD of MS2 coat protein reported for CUAGCGAUUGUAGGAUAUCGGACUGUUUCAGUCUGAGAAGGACAUGAGGAUCACCCAUGUGAAGCUACGUGAGUAGCACGCUAG [JL ENG1 3.84] (Eterna round: R96, puzzle: Exclusion NG 1) please.
0.0154

---

System: K4 kissing-loop RNA reporter;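 also: bound reporter read as fluorescence of individual clusters on recovered sequencing chips by microscopy, with normalized cluster intensities fitted with a binding model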
Test: apparent KD of K4 kissing-loop reporter; higher = weaker reporter binding
Details: Eterna round: R107; input ligand: arginine 13.2 mM
Some sequences, each annotated with its measured apparent KD of K4 kissing-loop reporter.
Write the number in nM without appending the unit.

monomer_sequence: GGACGACAGUCGGCCGCCACUCACAGCAGCCAGUGAUGUUGGAUUGUAGCGGAGUGAUGUUUCGCGAGGACCGGGACUGCAGUCC [Same State Tryptophan B GF 14]
apparent KD of K4 kissing-loop reporter (nM): 171

monomer_sequence: CAUACGCAUGGAGGAUAUGAGAUUUCUCAUAUUAUUGCUUAUUCUCAGUGAUGUUGGGAUUUAAGCUCAGAAGGCCAUGUGUAUG [Ex FMN B 10]
apparent KD of K4 kissing-loop reporter (nM): 88.4

monomer_sequence: AUGCGCGCGGCGGCCGCCACUCGCAUGAGAGUGAUGUUCUCACCGUGACCGUAAGGUCGCGGUGUGAGGACCGGGCCGGGCUGCG [#2 Same State - Tryptophan B Attempt #23 (HarryS)]
apparent KD of K4 kissing-loop reporter (nM): 72.7

monomer_sequence: AAAGAUCUUCUAGAAACUAGAAGAUCAAGAGAGGAUAUCCGAAUUCGGAGAAGGCUCACUAAGUGAUGUUUGGAGCCAAUGGCAA [AK2 SS FMN A]
apparent KD of K4 kissing-loop reporter (nM): 1100

monomer_sequence: CUUCAGAUCUGAAGGAGCGCGUUACCAGAAUGCAUCAUAGAGCAGUGAUGUUGCUCUGGAUCGCAGGUAGGUCGCAGAUCUGACG [Arg B Ex t7b]
apparent KD of K4 kissing-loop reporter (nM): 189

// next item, apparent KD of K4 kissing-loop reporter requested
Fill in: apparent KD of K4 kissing-loop reporter on K4 kissing-loop RNA reporter, entry UGAUAGCCAGUGAUGUUGGCAUAUACUGAAGGAGCGCGUGAAAACGCAGGUAGGUCGCAGUUCCUUGCCAAUUGAUCGAAAGAUC [#08 K4 Arginine A Exclusion]
200
